Please provide measured Percent Effect for the entries that follow.
# target system: Tyrosyl-tRNA synthetase, putative (Trypanosoma cruzi (strain CL Brener))
# assay text: Trypanosoma cruzi tyrosyl tRNA synthetase (TcYRS) _High Tyrosine SOP; further: in the data most compounds retested in dose-response had high values
# Type: functional
# Parameters: scale not given: direction of the effect not stated beside the values
# condition label: 30 µM
Answers are plain numbers, in %.

Example results:
compound	Percent Effect, %
NC[C@H]1CC[C@H](C(NC(=O)c2ccccc2)c2ccccn2)CC1 (stereo partly drawn)	10.6
CCOC1COC2(CCN(S(=O)(=O)c3cccc(F)c3)CC2)C1 (stereo not drawn)	6.84
c1cnnc(N2CCCC2CNCc2nc(C3CC3)no2)c1 (stereo not drawn)	6.22
COc1ccc(CN2CCC3(CC(Nc4ccncn4)C3)C2)c(OC)c1 (stereo not drawn)	5.29
Cc1nc(C(=O)N2CCC(Cc3cnc4[nH]ccc4c3)C2)co1 (stereo not drawn)	-2.12
Cn1nc2c(cc1=O)CN(Cc1nc(C(C)(C)C)no1)CC2	1.58
CCC(=O)N1CCCC1c1nccnc1Nc1nc(C)cc(C)n1 (stereo not drawn)	2.12
CCc1nc(CC(=O)N2CCCC2Cn2cccn2)cs1 (stereo not drawn)	2.63

Report Percent Effect for each item below.
1. Cc1ccc(-c2cc(CN3CCOC(Cn4cncn4)C3)on2)cc1 (stereo not drawn)
2. CCc1cc(O)nc(C2CCCN2C(=O)c2cc(C)no2)n1 (stereo not drawn)

A.
[10.8, -2.12]

====

# target system: Ubiquitin-activating enzyme e1, putative (Leishmania donovani (strain BPK282A1))
# assay text: Leishmania donovani Ubiquitin Activating Enzyme (LdE1)
# Assay type: functional
# Set-up: scale not given: direction of the effect not stated beside the values
# condition label: 30 µM
Entries with a potency or affinity are not part of this list.
For each entry below, report its Percent Effect value.
Give bare numbers, in %.

compound	reported
Cc1cc(C)n2cc(CN3CCCC3Cn3nc(C)nc3C)nc2n1 (stereo not given)	-2.67
O=C(CCSc1ccc(F)cc1)NS(=O)(=O)c1ccc2c(c1)OCCO2	-10.3
Cc1n[nH]c(=O)c2c(NC(=O)CN3CCOC(C)C3)oc(C)c12 (stereo not given)	17.9
CCOc1ncccc1C(=O)N1CCCC(c2nccn2CCOC)C1 (stereo not given)	5.41
CCNC(=O)[C@@H]1C[C@@H](NC(=O)Cc2ccncc2)CN1Cc1ccsc1	2.7

# batch: return Percent Effect for each of the 3 compounds below
1. Cc1ccc(NC2CCN(C(=O)c3n[nH]c4ccccc34)CC2)nn1
2. CN(C)CC(=O)N1C[C@H]2CCC[C@@]2(COc2ccccn2)C1
3. O=C(NCC1CC1)C1=NOC2(CCN(S(=O)(=O)c3cccs3)C2)C1 (stereo not given)

A.
1. 5.33
2. 1.3
3. -3.9

I need Percent Effect for every entry listed below, if you could help.
1. OC(COc1ccc(F)cc1)CN1CCC(Cn2cccn2)CC1 (stereo not given)
2. Cc1cc(NC(=O)CCN(CC2CCOC2)C2CC2)no1 (stereo not given)
3. COc1cccc(COCC(=O)N2CCCC(n3ccnc3C)C2)c1 (stereo not given)
4. CCn1ccnc1CN(C)CC1CCCN1c1cccnn1 (stereo not given)
5. CN(Cc1nnc(C2CC2)o1)C1CCN(CCCc2cnn(C)c2)C1 (stereo not given)

A.
18.2
21.3
-5.13
2.67
10.7

====

# target system: AMP-activated protein kinase, AMPK (Homo sapiens) (UniProt P54646+O43741+P54619+Q9UGJ0+Q9Y478+Q13131+Q9UGI9)
# assay text: AMP-dependent Kinase enzyme assay. An in vitro enzyme assay that detects ADP turnover that is directly proportional to AMPK activity. This uses naive AMPK that is activated during the assay with MK-8722
# Format: functional
# Parameters: scale not given: direction of the effect not stated beside the values
# condition label: 30 µM
quantity measured: Percent Effect (%)
Numbers only, in %.

Recorded results for 5 molecules are shown here.
molecule	quantity measured	reported
Cc1nn(-c2ccccc2)c2nc(C(C)(C)CN3CCN(C)CC3)[nH]c12	Percent Effect	9.98
Cc1cc(NC(=O)Cn2ccc(=O)c3ccccc32)[nH]n1	Percent Effect	-3.42
CN(CCCO)C(=O)c1cc(COc2ccc3c(c2)CCCC3)on1	Percent Effect	-1.01
CNS(=O)(=O)CC(=O)N1CCC(c2cc3ccccc3[nH]2)CC1	Percent Effect	16.4
Cc1cn2nc(N(C)C3CCCN(c4cccnn4)C3)sc2n1 (stereo not given)	Percent Effect	2.94

For each of the molecules below, note its Percent Effect.
1. COc1ncnc(N)c1CNCCc1ccc(-n2cccn2)cc1
2. CCCc1nnc(N2CCC(N3CCCC(O)C3)CC2)o1 (stereo not given)
3. CCN(C)C[C@@H]1CN(Cc2cnc3c(S(C)(=O)=O)cnn3c2)C[C@@H]1CO
4. C[C@@H]1CN(C(=O)C2(Cn3cccn3)CC2)C[C@@]1(O)C1CCC1
5. CNC(=O)C1CCCN(C(=O)c2cncs2)C1 (stereo not given)
6. COC(=O)C(NC(=O)c1cc(F)cc(F)c1)c1cccnc1 (stereo not given)
7. CC(=O)c1sc(C(NC(=O)c2ccccc2)C2CC2)nc1C (stereo not given)

A.
1: 6.72; 2: 4.12; 3: -11.4; 4: 5.58; 5: 4.55; 6: 2.18; 7: -2.1

Here are 5 molecules. What values of Percent Effect were reported for them?
1. CCc1c(C)nn2c(O)cc(C3CCN(C(=O)c4ccn(C)n4)C3)nc12 (stereo not given)
2. Cc1ccccc1[C@@H]1CN(CCCS(=O)(=O)N(C)C)C[C@H]1C(=O)O
3. CN(CCc1ccncc1)c1cnn(C)c(=O)c1Br
4. Cn1cc(NC(=O)N2CCCC2c2cccnc2)ccc1=O (stereo not given)
5. Cc1cc(CN(C)C(C(=O)O)c2ccc(C(C)(C)C)cc2)on1 (stereo not given)

A.
[-4.46, -1.92, -1.01, 42.2, 8.61]
